# Tested on: OVCAR-8 ovarian
# TEST: NCI tumour cell line growth inhibition, 48 h; in the data active means GI50 below about 0.43 µM; inactive means the rest
# valid calls are Y (active), N (inactive); nothing else

Worked examples follow.
[[record]]
compound = "O=C(Nc1ccc(Cl)cc1)Nc1nccs1"
class_label = "N"

[[record]]
compound = "N#CC(C#N)=C1CCCOc2c1ccc1ccccc21"
class_label = "N"

[[record]]
compound = "COc1cc2c3c(n(CCCN(CCO)CCO)c(=O)c2cc1OC)-c1cc2c(cc1C3=O)OCO2"
class_label = "Y"


Task item: What call does the record list for "NCCN.O=C([O-])[O-].O=C([O-])[O-].[Co+3].[K+]" ?
Reply: N

Task item: What is the recorded call for this compound in the test? "C=CCn1c(SCC(=O)Nc2ccc(C(=O)/C=C/c3cc(OC)c(OC)c(OC)c3)cc2)nnc1-c1ccc(OC)cc1"
Reply: N

Task item: Field: outcome | Entry: "COc1ccc(-c2cc(-c3ccc(Nc4ccnc5cc(Cl)ccc45)cc3)nc(N3CCOCC3)n2)cc1"
Reply: N

Task item: Field: outcome | Entry: "O=C(NNc1cnccn1)c1nc2cc(F)ccc2n2cccc12"
Reply: N

Task item: Short answer needed: outcome of this test for "NCCCOc1cc2ccccc2cc1C(=O)NCCCOc1cc2ccccc2cc1C(=O)Nc1ccc(Cl)cc1O" ?
Reply: Y

Task item: Recorded test call requested for "COc1ccc(-c2cc(Nc3ccnc(N4CCOCC4)n3)on2)cc1"
Reply: N

Task item: Hey, what did the test say about O=C1/C(=C/N2N=C(c3ccc4ccccc4c3)CC2c2ccccc2O)SC(=S)N1c1cccnc1 (stereo not given) ?
Reply: N

====

# Test system: SF-295 CNS
# TEST: NCI tumour cell line growth inhibition, 48 h
METRIC NAME: TGI

Use these answered entries as a reference point.
[[record]]
compound = "Clc1nc(Cl)c2ncn(Cc3ccccc3Cn3cnc4c(Cl)nc(Cl)nc43)c2n1"
system_under_test = "SF-295 CNS"
test_value = "22.4 µM"

[[record]]
compound = "Cc1ccc2c(c1)CC1(Cc3cccc(C)c3C1=O)C2=O (stereo not given)"
system_under_test = "SF-295 CNS"
test_value = "> 100 µM"


Task item: # TGI lookup, item "O=C(CBr)c1ccc2cc(Br)c3ccccc3c2c1"
Reply: 56.7 µM

Task item: Query (compound): "Nc1ccc(C2=N/C(=C\c3cccc(N)c3)C(=O)O2)cc1" ; field requested: TGI
Reply: > 100 µM

Task item: State the recorded TGI for this entry: C=C1CC[C@H]2C(=O)OC(c3ccoc3)C[C@]2(C)C/C=C\C=C/1C(=O)OC (stereo not given in full)
Reply: > 25 µM

====

# System: COLO 205 colon
# TEST: NCI tumour cell line growth inhibition, 48 h
METRIC NAME: TGI (µM)
# value in µM; strip the unit string

[[record]]
compound = "CCCCC1C=Cn2c(=O)oc3c(OC(C)C)c(C)c(O)c1c32 (configuration not stated)"
metric_name = "TGI"
test_value = 9.97


Task item: Find TGI (COLO 205 colon) for the entry "O=C1CC(=O)NC(=NN2C(=O)/C(=C/c3ccc(Cl)c(Cl)c3)N=C2c2ccccc2)N1"
Reply: 34.1

Task item: Request body: readout TGI, system COLO 205 colon, query "O=C1c2c(Br)sc(Br)c2C(=O)C1(O)O" . Return the value.
Reply: 50.7

Task item: Missing value: TGI, COLO 205 colon, entry "O=P1(Cc2ccccc2)N(Cc2ccccc2)[C@@H]2CCCC[C@H]2N1Cc1ccccc1" . Fill in?
Reply: 18.7

====

# Test system: SR leukemia
# TEST: NCI tumour cell line growth inhibition, 48 h
Recorded TGI for the following compounds

These solved cases illustrate the format of a correct answer.
[[record]]
compound = "CCCCC1Cc2cc(O)ccc2-c2nc3cc(O)ccc3n21 (stereo not given) (tested in a mixture with another compound)"
metric_name = "TGI"
test_value = "34 µM"

[[record]]
compound = "COc1cc(-c2nnc3n2NC=C(C(=O)O)S3)cc(OC)c1OC"
metric_name = "TGI"
test_value = "> 100 µM"

[[record]]
compound = "CCOC(=O)CCC(NC(=O)c1ccc(NCc2ccc3nc(-c4ccccc4)c(Cl)nc3c2)cc1)C(=O)OCC (stereo not given)"
metric_name = "TGI"
test_value = "> 100 µM"


Task item: I would be grateful if you could share the reported TGI for CCOC(=O)C(NC(=O)c1ccccc1)(N1CCN(c2cc3c(cc2F)c(=O)c(C(=O)O)cn3C2CC2)CC1)C(F)(F)F (stereo not given) .
Reply: 45.2 µM

Task item: For "Nc1ccc(C2=N/C(=C\c3cccc(N)c3)C(=O)O2)cc1" , what is its reported TGI?
Reply: > 100 µM

Task item: Look up TGI for this compound: Cc1ccc(C)c(N2C(=O)C(=O)C(c3nc4ccccc4o3)/C(=N/N)C2=O)c1 (stereo not given)
Reply: > 100 µM

Task item: Entry "Nc1c(S(=O)(=O)c2ccccc2)c2nc3ccccc3nc2n2c1nc1ccccc12" : reported TGI = ?
Reply: > 100 µM

====

GI50, U251 CNS, per-entry values.

Example entries and their recorded answers appear below.
[[record]]
compound = "CNC(C)[C@H]1CCC2C3CC=C4C(=O)[C@@H](NC(=O)C=C(C)C)CC[C@]4(C)C3CC[C@@]21C (stereo partly specified)"
system_under_test = "U251 CNS"
test_value = "2.19 µM"

[[record]]
compound = "C=C1C(O)C2C(=C(C)C13CC3)C(=O)C(C)(C)C2OC (stereo unspecified)"
system_under_test = "U251 CNS"
test_value = "> 100 µM"

[[record]]
compound = "COc1cc(/C=C2\\CCC/C(=C\\c3ccc(OCC4CO4)c(OC)c3)C2=O)ccc1OCC1CO1 (stereo unspecified)"
system_under_test = "U251 CNS"
test_value = "2.11 µM"


Task item: So what GI50 did O=C1/C(=C/N2N=C(c3ccc4ccccc4c3)CC2c2ccccc2O)SC(=S)N1c1cccnc1 (stereo unspecified) get with U251 CNS?
Reply: 0.897 µM

Task item: Query for U251 CNS: what GI50 does the record show for Cc1sc2c(c1C)C(c1ccc(Cl)cc1)=N[C@@H](CC(=O)Nc1ccc(OCCOCCOCCOCCNc3cccc4c3C(=O)N(C3CCC(=O)NC3=O)C4=O)cc1)c1nnc(C)n1-2 (stereo partly specified) ?
Reply: 0.476 µM

Task item: API: value(readout= GI50, system= U251 CNS, query= "NCCN.O=C([O-])[O-].O=C([O-])[O-].[Co+3].[K+]" )
Reply: > 100 µM

====

# Test system: HOP-92 NSCLC
# TEST: NCI tumour cell line growth inhibition, 48 h
METRIC NAME: TGI

Here are 4 compounds together with their reported answers.
[[record]]
compound = "Cc1ccc(C)c(N2C(=O)C(=O)C(c3nc4ccccc4o3)/C(=N\\NC(=O)c3ccccc3O)C2=O)c1 (stereo not given)"
system_under_test = "HOP-92 NSCLC"
test_value = "> 100 µM"

[[record]]
compound = "CCC[CH2][Sn]1([CH2]CCC)[O]CC(COc2c(Cl)cc(Cl)cc2Cl)[O]1 (stereo not given)"
system_under_test = "HOP-92 NSCLC"
test_value = "3.06 µM"

[[record]]
compound = "O=C1CC(=O)NC(=NN2C(=O)/C(=C/c3ccc(Cl)c(Cl)c3)N=C2c2ccccc2)N1"
system_under_test = "HOP-92 NSCLC"
test_value = "89.8 µM"

[[record]]
compound = "CNC(C)C(O)c1ccc2oc3cc(=O)c4ccccc4c-3nc2c1 (stereo not given)"
system_under_test = "HOP-92 NSCLC"
test_value = "> 100 µM"


Shift focus to the following entry.
Task item: Bench note: what TGI did C=C1C(=O)OC2C1CC(OC(C)=O)/C(C)=C/CCC1(C)OC21 (stereo not given) show?
Reply: > 100 µM

====

# Test system: MDA-MB-435
# TEST: NCI tumour cell line growth inhibition, 48 h
# TGI per entry
Respond numerically; units are µM and should not be typed.

For orientation, consider the following solved cases.
[[record]]
compound = "O=C1c2ccccc2OCC12OC21C=CC(Cl)=CC1 (stereo not given)"
system_under_test = "MDA-MB-435"
metric_name = "TGI"
test_value = 51.5

[[record]]
compound = "Cn1cc(-c2csc(-c3cn(C)c4ccc(F)cc34)n2)c2cnccc21"
system_under_test = "MDA-MB-435"
metric_name = "TGI"
test_value = 3.1

[[record]]
compound = "NC(N)=N/N=C(\\N=Nc1ccccc1)c1ccc(Cl)cc1"
system_under_test = "MDA-MB-435"
metric_name = "TGI"
test_value = 4.36

[[record]]
compound = "CNC(C)[C@H]1CCC2C3CC=C4C(=O)[C@@H](NC(=O)C=C(C)C)CC[C@]4(C)C3CC[C@@]21C (stereo not given in full)"
system_under_test = "MDA-MB-435"
metric_name = "TGI"
test_value = 3.27

[[record]]
compound = "O=C(Nc1ccc(Cl)cc1)Nc1nccs1"
system_under_test = "MDA-MB-435"
metric_name = "TGI"
test_value = 0.585

[[record]]
compound = "N#Cc1cc2c(cc1Cl)Sc1nnc(Nc3ccccc3)n1S2(=O)=O"
system_under_test = "MDA-MB-435"
metric_name = "TGI"
test_value = 4.8


Task item: Can you look up the measured TGI of "Cc1c2ccc3ccccc3c2c[n+]2ccccc12" for me?
Reply: 35.2

Task item: What TGI value was documented for this compound, CCOC(=O)C(NC(=O)c1ccccc1)(N1CCN(c2cc3c(cc2F)c(=O)c(C(=O)O)cn3C2CC2)CC1)C(F)(F)F (stereo not given) ?
Reply: 45.2

Task item: Name the reported TGI value associated with the compound "Cc1ccc(CSC(N)=Nc2ccccc2)cc1C"
Reply: 30.7

Task item: Which TGI is reported for this compound? "Clc1nc(Cl)c2ncn(Cc3ccccc3Cn3cnc4c(Cl)nc(Cl)nc43)c2n1"
Reply: 5.58
